experiment: Phase 1a multiple ascending dose study (oral solution): plasma pharmacokinetics; type: in vivo, human; conditions: human, plasma, oral, 240 mg, Cohort 3, 240 mg once daily; Day 7; Hour 4; read-out: Compound 1 concentration, Conc (SD)

{"SMILES_RECORD": "CC(C)(C)OC(=O)N1CCN(Cc2ccn(Cc3ccc(Cl)cc3)c(=O)c2O)CC1", "UOM": "ng/mL", "concentration at 4 h": 6.99}

====

assay: Phase 1a multiple ascending dose study (oral solution): plasma pharmacokinetics; format: in vivo, human; conditions: human, plasma, oral, 240 mg, Cohort 3, 240 mg; Day 1; Hour 4; read-out: Compound 1 concentration, Conc (SD)

{"SMILES_RECORD": "CC(C)(C)OC(=O)N1CCN(Cc2ccn(Cc3ccc(Cl)cc3)c(=O)c2O)CC1", "concentration at 4 h / ng/mL": 4.12}

====

assay: Phase 1a multiple ascending dose study (oral solution): plasma pharmacokinetics; format: in vivo, human; conditions: human, plasma, oral, 60 mg, Cohort 5, 60 mg; Day 1; Hour 16; read-out: Compound 1 concentration, Conc (SD)

{"SMILES_RECORD": "CC(C)(C)OC(=O)N1CCN(Cc2ccn(Cc3ccc(Cl)cc3)c(=O)c2O)CC1", "UOM": "ng/mL", "concentration at 16 h": 0}

====

Assay: Phase 1a multiple ascending dose study (oral solution): plasma pharmacokinetics
Format: in vivo, human
Settings: human, plasma, oral, 60 mg, Cohort 1, 60 mg once daily; Day 7; read-out: Cmax, mean
Procedure: Compound 1 was administered as the HCl-salt (prepared analogously to Example 2.1). The secondary objective was to characterize the multiple dose pharmacokinetic (PK) parameters of Compound 1, after ascending doses. Secondary endpoints included determination of PK parameters in plasma and urine, fecal excretion and assessment of colonic biopsy samples. […]
VALUE_TYPE: Cmax (ng/mL)

{"SMILES_RECORD": "CC(C)(C)OC(=O)N1CCN(Cc2ccn(Cc3ccc(Cl)cc3)c(=O)c2O)CC1", "OBSERVED_MEASUREMENT": 4.33}

====

assay: Phase 1a multiple ascending dose study (oral solution): plasma pharmacokinetics; type: in vivo, human; conditions: human, plasma, oral, 120 mg, Cohort 4, 120 mg once daily; Day 7; Hour 2; read-out: Compound 1 concentration, Conc (SD)

{"SMILES_RECORD": "CC(C)(C)OC(=O)N1CCN(Cc2ccn(Cc3ccc(Cl)cc3)c(=O)c2O)CC1", "concentration at 2 h": "5.32 ng/mL"}

====

assay: Phase 1a multiple ascending dose study (oral solution): plasma pharmacokinetics; assay type: in vivo, human; conditions: human, plasma, oral, 60 mg, Cohort 1, 60 mg once daily; Day 7; read-out: AUC(0-t), mean

{"MOLECULE": "CC(C)(C)OC(=O)N1CCN(Cc2ccn(Cc3ccc(Cl)cc3)c(=O)c2O)CC1 [Compound 1]", "AUC(0-t) / ng·h/mL": 17}

====

assay: Phase 1a single ascending dose study (oral solution): plasma pharmacokinetics; type: in vivo; conditions: male, human, 240 mg, Cohort 4, 240 mg single oral dose (4.8 mg/mL, 50 mL), read-out: Cmax, mean (SD)

{"SMILES_RECORD": "CC(C)(C)OC(=O)N1CCN(Cc2ccn(Cc3ccc(Cl)cc3)c(=O)c2O)CC1", "UOM": "ng/mL", "Cmax": 25}

====

experiment: Phase 1a multiple ascending dose study (oral solution): plasma pharmacokinetics; format: in vivo, human; conditions: human, plasma, oral, 120 mg, Cohort 2, 120 mg; Day 1; Hour 8; read-out: Compound 1 concentration, Conc (SD)
VALUE_TYPE: concentration at 8 h (ng/mL)

{"SMILES_RECORD": "CC(C)(C)OC(=O)N1CCN(Cc2ccn(Cc3ccc(Cl)cc3)c(=O)c2O)CC1", "OBSERVED_MEASUREMENT": 0}
